Below, each of the compounds is paired with its reported GI50 value.
# System: SK-MEL-28
# procedure details: NCI tumour cell line growth inhibition, 48 h
Active and inactive are the calls of the source. Rule as the data show it: active = GI50 up to about 1.1 µM and inactive = higher.
measured attribute: GI50

1. O=C(/C=C/c1c(O)ccc2ccccc12)c1ccc2ccccc2c1 ... > 100 µM (inactive)
2. O=C(N/N=C(COc1ccc(Cl)cc1)\N=C\c1cccnc1)c1ccncc1 ... > 100 µM (inactive)
3. CC(=O)OCC(Br)C1(C)CCC(C(C)(C)Br)O1 (stereo not given) ... 79.6 µM (inactive)
4. Cc1cc(C)nc(SCC(=O)OC2CC(C)CCC2C(C)C)n1 (stereo not given) ... 26 µM (inactive)
5. C=C[C@H]1CN2CC[C@H]1C[C@@H]2[C@@H](O)c1ccnc2ccccc12 [CINCHONINE] ... > 100 µM (inactive)

###

# Test system: U-251
# procedure details: NCI tumour cell line growth inhibition, 48 h
Structures can show the parent of a compound that is named as a salt. Active and inactive are the calls of the source. No stated cut-off is given here; in the data, active = GI50 up to about 1.1 µM and inactive = higher.
measured attribute: GI50

1. CCCCCC/C=C\CCCCCCCCCc1cccc(O)c1C(=O)O ... > 100 µM (inactive)
2. O=C1OC(c2ccccc2)=N/C1=C\c1cc(Cl)ccc1Cl ... 70.8 µM (inactive)
3. COc1ccc(/C=C2/NC(=S)N=C2Cl)cc1 ... > 100 µM (inactive)
4. CCOC(=O)C1(N)CC1 ... > 100 µM (inactive)
5. C=C(C)/C=C/C(O)[C@](C)(O)[C@H]1[C@H](O)C[C@@]2(C)[C@@H]3CCc4c(cc(OC5OC(CO)C(O)C(O)C5O)c(O)c4C)C3(C)C(=O)C[C@]12C (stereo partly specified) ... > 100 µM (inactive)
6. CSc1nc(NC2OCC(OC(C)=O)C(OC(C)=O)C2OC(C)=O)c(/N=C(\C)C(C)=O)c(=O)n1C (stereo unspecified) ... > 100 µM (inactive)
7. Nc1nc(Cl)cc(NCC2(CO)CC(CCc3ccccc3)C2)n1 (stereo unspecified) ... > 100 µM (inactive)
8. c1ccc(-c2nnc3nn4c(-c5ccccc5)cnnc4c3c2-c2ccccc2)cc1 ... 32.6 µM (inactive)
9. O=NN(CCCl)C(=O)NC1CCC(=O)NC1=O (stereo unspecified) ... 52.8 µM (inactive)
10. COCO[C@@H]1C[C@H]2C(O)Nc3ccccc3C(=O)N2C1 (stereo partly specified) ... > 100 µM (inactive)
11. COC(=O)C1=COC2OC3CC1C2C(C)O3 (stereo unspecified) ... > 100 µM (inactive)
12. C#Cc1cccc(Nc2ncnc3cc(OCCOC)c(OCCOC)cc23)c1 [ERLOTINIB HYDROCHLORIDE] ... 29.4 µM (inactive)
13. CC1(C)Cc2c(cnn2-c2ccc(C(F)(F)F)cc2)-c2[nH]c(-c3ccc(O)cc3)nc21 ... 12.3 µM (inactive)
14. C[C@@H]1CC[C@H]2C(C)(C)[C@H]3C[C@@]12CC[C@@]3(C)O ... > 10 µM (inactive)
15. Cc1ccccc1C(C#N)/C(=N/NC(=O)C(=O)NN)C(=O)Nc1cccc(C(F)(F)F)c1 (stereo unspecified) ... > 100 µM (inactive)
16. COC(=O)C(CC12CC3CC(CC(C3)C1)C2)NC(=O)C(N)CC(=O)O (stereo unspecified) ... > 100 µM (inactive)
17. Cc1ccc(OCC2OC(n3cnc4c(Cl)nc(Nc5cc(Cl)cc(Cl)c5)nc43)CC2Oc2ccc(C)cc2)cc1 (stereo unspecified) ... > 100 µM (inactive)
18. O=C(O)CS(=O)(=O)C(c1ccccc1)c1ccccc1 ... > 100 µM (inactive)
19. OCCCc1cc(O)c2c(c1)C(CO)C(c1ccc(O)c(O)c1)O2 (stereo unspecified) ... > 100 µM (inactive)
20. CS(=O)(=O)c1ccc(COP(N)(=O)N(CCCl)CCCl)cc1 (stereo unspecified) ... > 100 µM (inactive)
21. Cc1c(NC(=O)CSC(=S)N2CCN(Cc3ccccc3)CC2)c(=O)n(-c2ccccc2)n1C ... > 100 µM (inactive)

###

# Test system: CAKI-1
# procedure details: NCI tumour cell line growth inhibition, 48 h
The source made the active and inactive calls. No stated cut-off is given here; in the data, active = GI50 up to about 1.1 µM and inactive = higher.
measured attribute: GI50

1. CC1=Nc2c(C#N)ncn2N=C(C)C1 ... > 100 µM (inactive)
2. Cc1nc2ccc(Cl)cc2c2c1CCN2c1ccccc1 ... 11.5 µM (inactive)
3. c1ccc(CC2COC(c3cccs3)=N2)cc1 (configuration not stated) ... > 100 µM (inactive)
4. Cc1c(NC(=O)CSC(=S)N2CCN(Cc3ccccc3)CC2)c(=O)n(-c2ccccc2)n1C ... > 100 µM (inactive)
5. O=C1Nc2ccccc2/C1=C\c1c(Cl)nc2n1CCS2 ... 34.8 µM (inactive)
6. O=[N+]([O-])c1ccc2c(c1)C(N1CCN(CCO)CC1)Cc1ccc(F)cc1S2 (configuration not stated) ... 13.1 µM (inactive)
7. COc1cc(/C=C2\N=C(c3ccccc3)N(c3nc4ccccc4s3)C2=O)cc(OC)c1OC ... 70.6 µM (inactive)
8. COc1ccc(/C=C\c2cc(OC)c(OC)c(OC)c2)cc1OCC(=O)O ... 48.2 µM (inactive)
9. N[C@H](C(=O)O)[C@@H]1CC(Br)=NO1 ... 90.2 µM (inactive)
10. CC(=O)Oc1cc(C(F)(F)F)ccc1C(=O)OC1(C)OC(=O)c2ccc(C(F)(F)F)cc2O1 (configuration not stated) ... > 100 µM (inactive)
11. O=[N+]([O-])C(C(Cl)=C(Cl)Cl)=C(N1CCOCC1)N1CCOCC1 ... > 100 µM (inactive)
12. COc1ccc(-c2cc(=O)c3c(O)cc(O)cc3o2)c(OC)c1OC ... 60.8 µM (inactive)
13. CC(=O)Oc1ccc(C2SCc3nc4ccccc4n32)cc1 (configuration not stated) ... 24.4 µM (inactive)
14. CC(C)(C)OC(=O)N/N=C(/N)Cc1ccccc1 ... > 100 µM (inactive)
15. COc1cc(-c2nnc3n2NC=C(C(=O)O)S3)cc(OC)c1OC ... > 100 µM (inactive)
16. O=C(/C=C(\O)C(=O)O)/C=C(\O)c1ccccc1Cl ... > 100 µM (inactive)
17. O=C(N/N=C(COc1ccc(Cl)cc1)\N=C\c1cccnc1)c1ccncc1 ... > 100 µM (inactive)
18. CC1(O)CCC2(C#N)CCC1C2O (configuration not stated) ... > 100 µM (inactive)
19. CN1CCc2cc(N)cc3c2C1Cc1ccc2c(c1-3)OCO2 (configuration not stated) ... 41.5 µM (inactive)
20. O=C1C(NCCc2ccc(O)c(O)c2)=CC(=O)c2ncccc21 ... 5.52 µM (inactive)
21. O=C1NC2C(=O)N(Cc3ccccc3)C(=O)C2N1 (configuration not stated) ... > 100 µM (inactive)
22. CC1(C)OC([C@H](O)CO)C([C@H]2NCCS2)O1 (some centres not stated) ... > 100 µM (inactive)
23. COc1c2cc([N+](=O)[O-])cc1CNC(=O)CN1CCOCCOCCN(CCOCCOCC1)CC(=O)NC2 ... > 100 µM (inactive)
24. COc1c(NC(C)=O)cc(C)cc1NC(C)=O ... > 100 µM (inactive)
25. N#Cc1nc(C2SCCCS2)oc1N ... > 100 µM (inactive)
26. C=CCc1cc(-c2n[nH]c(=S)[nH]2)ccc1N/N=N/c1ccc(C(=O)O)cc1 ... > 100 µM (inactive)
27. Cc1ccc(C2(O)CS/C(=N\C34CC5CC(CC(C5)C3)C4)N2C(P(=O)(O)O)P(=O)(O)O)cc1 (configuration not stated) ... > 100 µM (inactive)
28. COC1O[C@@H]2CCN3C(=O)[C@@H](OC(=O)c4ccc([N+](=O)[O-])cc4)[C@H]1C23 (some centres not stated) ... > 100 µM (inactive)
29. O=C(O)CC(CC(=O)O)n1cccc1 ... > 100 µM (inactive)
30. ClCc1nc2cc(Cl)ccc2o1 ... 1.65 µM (inactive)
31. CCOc1cc(C2CC(c3ccc(NS(=O)(=O)c4cc([N+](=O)[O-])ccc4C)cc3)=NN2c2ccc([N+](=O)[O-])cc2[N+](=O)[O-])ccc1O (configuration not stated) ... 16.9 µM (inactive)
32. Cc1cc2c(cc1-c1cc3c(cc1C)C(C(C)C)=C(O)C(=O)/C3=C\Nc1cccc3c(N)cccc13)/C(=C/Nc1cccc3c(N)cccc13)C(=O)C(O)=C2C(C)C ... > 100 µM (inactive)
33. COC(=O)CCC(=O)CC1CC(=O)C2CCCN12 (configuration not stated) ... > 100 µM (inactive)
34. CCN(CC)S(=O)(=O)c1ccc2[nH]c(NC(=O)OC)nc2c1 ... > 100 µM (inactive)
35. Cc1cc(S(N)(=O)=O)c(S/C(=N\Nc2ccc([N+](=O)[O-])cc2)c2ccc(Cl)cc2)cc1Cl ... 3.42 µM (inactive)
36. O=c1[nH]c2ccccc2n1CCCN1CCC(n2c(=O)[nH]c3cc(Cl)ccc32)CC1 ... 15.7 µM (inactive)
37. CC(=O)CC1(C)OC(N)=C(C#N)C1(C#N)C#N (configuration not stated) ... 59.4 µM (inactive)
38. O=C1CCN(CCC(F)(F)C(F)(F)C(F)(F)C(F)(F)C(F)(F)C(F)(F)F)C(=S)N1CCC(F)(F)C(F)(F)C(F)(F)C(F)(F)C(F)(F)C(F)(F)F ... > 100 µM (inactive)
39. N#CSC#CCCC#CSC#N ... 19 µM (inactive)
40. CCOC(=O)CCC(NC(=O)c1ccc(Nc2nc3ccc(C(F)(F)F)cc3nc2-c2ccccc2)cc1)C(=O)OCC (configuration not stated) ... > 100 µM (inactive)
41. Cc1nn2c(=O)c([N+](=O)[O-])c(/C=C/c3ccco3)nc2s1 ... 52.6 µM (inactive)
42. CSc1nc(NC2OCC(OC(C)=O)C(OC(C)=O)C2OC(C)=O)c(/N=C(\C)C(C)=O)c(=O)n1C (configuration not stated) ... > 100 µM (inactive)

// data source = ChEMBL document CHEMBL1201862
